Test system Acetylcholinesterase (Electrophorus electricus, UniProt O42275), log10 IC50 listed for each of the compounds.
// stored as log10 of IC50 expressed in nM

> print(dat)
                           substance.smiles  test.result
1  O=C(COC(=O)Cc1c[nH]c2ccccc12)Nc1c2c(nc3ccccc13)CCCC2         0.91
2  COc1cc(OC)cc(C(=O)OCC(=O)Nc2c3c(nc4ccccc24)CCCC3)c1         1.20

Q) Given `O=C(COC(=O)Cc1ccc(Cl)cc1)Nc1c2c(nc3ccccc13)CCCC2` , respond with its log10 IC50.
A) 2.26

Q) Given `O=C(COC(=O)Cc1ccc(O)cc1)Nc1c2c(nc3ccccc13)CCCC2` , respond with its log10 IC50.
A) 1.87

Q) Given `COc1ccc(C(=O)OCC(=O)Nc2c3c(nc4ccccc24)CCCC3)c(OC)c1OC` , respond with its log10 IC50.
A) 1.19

Q) Given `COc1ccc(/C=C/C(=O)OCC(=O)Nc2c3c(nc4ccccc24)CCCC3)cc1O` , respond with its log10 IC50.
A) 1.87

Q) Given `O=C(COC(=O)/C=C/c1ccc(Cl)cc1)Nc1c2c(nc3ccccc13)CCCC2` , respond with its log10 IC50.
A) 2.33

Q) Given `COc1ccc(CC(=O)OCC(=O)Nc2c3c(nc4ccccc24)CCCC3)c(OC)c1OC` , respond with its log10 IC50.
A) 0.75

Q) Given `COc1cc(C(=O)OCC(=O)Nc2c3c(nc4ccccc24)CCCC3)ccc1O` , respond with its log10 IC50.
A) 1.85

Q) Given `COc1ccc(CC(=O)OCC(=O)Nc2c3c(nc4ccccc24)CCCC3)cc1` , respond with its log10 IC50.
A) 1.40

---

Test system Cholinesterase (Equus caballus), IC50 listed for each of the compounds.
Report as a plain number; the unit nM is understood.

> print(dat)
                           substance.smiles  test.result
1  COc1ccc(/C=C/C(=O)OCC(=O)Nc2c3c(nc4ccccc24)CCCC3)cc1O          355

Q) Write IC50 of `COc1cc(/C=C/C(=O)OCC(=O)Nc2c3c(nc4ccccc24)CCCC3)cc(OC)c1OC` ; system used: Cholinesterase (Equus caballus)
Sequence (P81908 whole entry): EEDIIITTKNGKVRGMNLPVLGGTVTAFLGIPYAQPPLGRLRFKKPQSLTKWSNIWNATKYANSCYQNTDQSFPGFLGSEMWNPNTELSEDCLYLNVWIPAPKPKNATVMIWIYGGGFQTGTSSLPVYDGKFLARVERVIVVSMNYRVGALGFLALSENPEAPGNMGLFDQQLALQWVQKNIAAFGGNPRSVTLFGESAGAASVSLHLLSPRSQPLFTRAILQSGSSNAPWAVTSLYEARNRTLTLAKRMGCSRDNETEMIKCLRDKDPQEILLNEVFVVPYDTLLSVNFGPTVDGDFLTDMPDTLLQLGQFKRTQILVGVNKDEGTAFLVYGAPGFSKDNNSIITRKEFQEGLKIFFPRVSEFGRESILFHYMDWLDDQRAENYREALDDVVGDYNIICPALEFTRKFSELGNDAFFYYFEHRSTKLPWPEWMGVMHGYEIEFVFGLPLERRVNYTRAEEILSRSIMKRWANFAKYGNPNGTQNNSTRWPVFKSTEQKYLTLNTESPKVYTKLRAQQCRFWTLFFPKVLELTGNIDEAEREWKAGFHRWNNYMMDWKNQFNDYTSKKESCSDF
A) 299

Q) Write IC50 of `COc1ccc(C(=O)OCC(=O)Nc2c3c(nc4ccccc24)CCCC3)c(OC)c1OC` ; system used: Cholinesterase (Equus caballus)
A) 255

Q) Write IC50 of `O=C(COC(=O)Cc1c[nH]c2ccccc12)Nc1c2c(nc3ccccc13)CCCC2` ; system used: Cholinesterase (Equus caballus)
A) 292

Q) Write IC50 of `COc1ccc(CC(=O)OCC(=O)Nc2c3c(nc4ccccc24)CCCC3)cc1` ; system used: Cholinesterase (Equus caballus)
A) 319

Q) Write IC50 of `O=C(COC(=O)c1ccc(O)c(O)c1)Nc1c2c(nc3ccccc13)CCCC2` ; system used: Cholinesterase (Equus caballus)
A) 344

Q) Write IC50 of `COc1ccc(/C=C/C(=O)OCC(=O)Nc2c3c(nc4ccccc24)CCCC3)cc1OC` ; system used: Cholinesterase (Equus caballus)
A) 159

---

Test system UniProt:O42275, pIC50 listed for each of the compounds.
# reply with the number alone; pIC50 is -log10 of concentration in mol/L

> print(dat)
                           substance.smiles  outcome.measure  test.result
1  COc1ccc(/C=C/C(=O)OCC(=O)Nc2c3c(nc4ccccc24)CCCC3)cc1OC            pIC50         7.79

Q) Write pIC50 of `COc1cc(C(=O)OCC(=O)Nc2c3c(nc4ccccc24)CCCC3)cc(OC)c1OC` ; system used: UniProt:O42275
A) 8.07

Q) Write pIC50 of `COc1cc(/C=C/C(=O)OCC(=O)Nc2c3c(nc4ccccc24)CCCC3)cc(OC)c1OC` ; system used: UniProt:O42275
A) 7.77

Q) Write pIC50 of `O=C(COC(=O)c1ccc(O)c(O)c1)Nc1c2c(nc3ccccc13)CCCC2` ; system used: UniProt:O42275
A) 6.88

Q) Write pIC50 of `COc1ccc(CC(=O)OCC(=O)Nc2c3c(nc4ccccc24)CCCC3)cc1OC` ; system used: UniProt:O42275
A) 7.19

---

Test system Amyloid-beta precursor protein (Homo sapiens), pIC50 listed for each of the compounds.
# reply with the number alone; pIC50 is -log10 of concentration in mol/L

Example results:
> print(dat)
                           substance.smiles  test.result
1  COc1ccc(C(=O)OCC(=O)Nc2c3c(nc4ccccc24)CCCC3)c(OC)c1OC         7.18
2  COc1cc(/C=C/C(=O)OCC(=O)Nc2c3c(nc4ccccc24)CCCC3)cc(OC)c1OC         7.34
3  O=C(COC(=O)Cc1c[nH]c2ccccc12)Nc1c2c(nc3ccccc13)CCCC2         7.41
4  O=C(COC(=O)Cc1ccc(Cl)cc1)Nc1c2c(nc3ccccc13)CCCC2         7.11

Q) Write pIC50 of `COc1ccc(CC(=O)OCC(=O)Nc2c3c(nc4ccccc24)CCCC3)cc1OC` ; system used: Amyloid-beta precursor protein (Homo sapiens)
Sequence (P05067 whole entry): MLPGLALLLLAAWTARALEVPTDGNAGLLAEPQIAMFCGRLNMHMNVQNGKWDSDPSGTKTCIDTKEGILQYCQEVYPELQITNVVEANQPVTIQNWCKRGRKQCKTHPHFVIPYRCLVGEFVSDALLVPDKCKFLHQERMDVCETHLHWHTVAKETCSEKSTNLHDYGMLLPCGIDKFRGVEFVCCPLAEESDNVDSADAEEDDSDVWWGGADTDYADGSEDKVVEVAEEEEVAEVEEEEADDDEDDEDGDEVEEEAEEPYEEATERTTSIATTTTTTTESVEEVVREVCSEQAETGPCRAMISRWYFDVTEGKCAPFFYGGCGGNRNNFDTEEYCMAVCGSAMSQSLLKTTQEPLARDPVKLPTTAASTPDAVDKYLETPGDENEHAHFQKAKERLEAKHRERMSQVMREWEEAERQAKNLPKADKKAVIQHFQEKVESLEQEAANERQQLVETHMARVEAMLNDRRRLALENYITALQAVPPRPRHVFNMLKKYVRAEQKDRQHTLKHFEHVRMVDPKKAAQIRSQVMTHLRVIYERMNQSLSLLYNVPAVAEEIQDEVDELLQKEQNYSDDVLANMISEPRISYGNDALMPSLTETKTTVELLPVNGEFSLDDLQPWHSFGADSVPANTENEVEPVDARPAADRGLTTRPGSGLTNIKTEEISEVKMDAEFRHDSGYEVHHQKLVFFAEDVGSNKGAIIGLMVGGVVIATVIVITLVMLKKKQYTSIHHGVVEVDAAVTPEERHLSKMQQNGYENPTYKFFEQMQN
A) 7.65

Q) Write pIC50 of `COc1cc(C(=O)OCC(=O)Nc2c3c(nc4ccccc24)CCCC3)cc(OC)c1OC` ; system used: Amyloid-beta precursor protein (Homo sapiens)
A) 7.51

Q) Write pIC50 of `O=C(COC(=O)c1ccc(O)c(O)c1)Nc1c2c(nc3ccccc13)CCCC2` ; system used: Amyloid-beta precursor protein (Homo sapiens)
A) 7.76

Q) Write pIC50 of `COc1ccc(/C=C/C(=O)OCC(=O)Nc2c3c(nc4ccccc24)CCCC3)cc1OC` ; system used: Amyloid-beta precursor protein (Homo sapiens)
A) 7.31

Q) Write pIC50 of `O=C(COC(=O)Cc1ccc(O)cc1)Nc1c2c(nc3ccccc13)CCCC2` ; system used: Amyloid-beta precursor protein (Homo sapiens)
A) 7.34

Q) Write pIC50 of `COc1ccc(CC(=O)OCC(=O)Nc2c3c(nc4ccccc24)CCCC3)cc1` ; system used: Amyloid-beta precursor protein (Homo sapiens)
A) 7.15

Q) Write pIC50 of `COc1ccc(/C=C/C(=O)OCC(=O)Nc2c3c(nc4ccccc24)CCCC3)cc1O` ; system used: Amyloid-beta precursor protein (Homo sapiens)
A) 7.34

Q) Write pIC50 of `O=C(COC(=O)/C=C/c1ccc(Cl)cc1)Nc1c2c(nc3ccccc13)CCCC2` ; system used: Amyloid-beta precursor protein (Homo sapiens)
A) 7.29

Q) Write pIC50 of `COc1cc(OC)cc(C(=O)OCC(=O)Nc2c3c(nc4ccccc24)CCCC3)c1` ; system used: Amyloid-beta precursor protein (Homo sapiens)
A) 7.25

Q) Write pIC50 of `COc1cc(C(=O)OCC(=O)Nc2c3c(nc4ccccc24)CCCC3)ccc1O` ; system used: Amyloid-beta precursor protein (Homo sapiens)
A) 7.43

Q) Write pIC50 of `COc1ccc(CC(=O)OCC(=O)Nc2c3c(nc4ccccc24)CCCC3)c(OC)c1OC` ; system used: Amyloid-beta precursor protein (Homo sapiens)
A) 7.29

---

- Tested system: Cholinesterase (Equus caballus)
Measured IC50, listed per entry.
Report as a plain number; the unit nM is understood.

Example results:
> print(dat)
                           substance.smiles  test.result
1  O=C(COC(=O)Cc1ccc(O)cc1)Nc1c2c(nc3ccccc13)CCCC2          239
2  COc1cc(OC)cc(C(=O)OCC(=O)Nc2c3c(nc4ccccc24)CCCC3)c1          224

Kindly consider the entry below.
Q) Given `COc1cc(C(=O)OCC(=O)Nc2c3c(nc4ccccc24)CCCC3)ccc1O` , respond with its IC50.
A) 319
